// reported Rel EC50 for each item listed
Target Or System: T1, Recombinant DR3-Fc (R&D Systems, cat. #943-D3) (UniProt Q93038 25-199, limits assumed)
T1 construct: dimeric MW~92 kDa; also called DR3 receptor; Fc-DR3; not shown: Fc part of the bought fusion
T1 sequence (looked up): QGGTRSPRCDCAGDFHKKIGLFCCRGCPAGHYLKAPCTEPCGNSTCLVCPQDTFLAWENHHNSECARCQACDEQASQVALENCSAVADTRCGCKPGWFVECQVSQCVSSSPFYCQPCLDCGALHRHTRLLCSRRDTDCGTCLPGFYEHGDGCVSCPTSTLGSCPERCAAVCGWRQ
Run Description: ELISA, DR3-Fc immobilized

Q: Give Rel EC50 for the following binder: TL1W92 (His-TEV-TL1A M158Y) (ligand, also called TL1W92 (M158Y)) HHHHHHENLYFQGLKGQEFAPSHQQVYAPLRADGDKPRAHLTVVRQTPTQHFKNQFPALHWEHELGLAFTKNRMNYTNKFLLIPESGDYFIYSQVTFRGYTSECSEIRQAGRPNKPDSITVVITKVTDSYPEPTQLLMGTKSVCEVGSNWFQPIYLGAMFSLQEGDKLMVNVSDISLVDYTKEDKTFFGAFLL
A: 0.6 ratio (head: nM)

Q: Give Rel EC50 for the following binder: TL1W131 (His-TEV-TL1A Y238E) (ligand, also called TL1W131 (Y238E)) HHHHHHENLYFQGLKGQEFAPSHQQVYAPLRADGDKPRAHLTVVRQTPTQHFKNQFPALHWEHELGLAFTKNRMNYTNKFLLIPESGDYFIYSQVTFRGMTSECSEIRQAGRPNKPDSITVVITKVTDSYPEPTQLLMGTKSVCEVGSNWFQPIYLGAMFSLQEGDKLMVNVSDISLVDETKEDKTFFGAFLL
A: 11.5 ratio (head: nM)

Q: Give Rel EC50 for the following binder: TL1W94 (His-TEV-TL1A M158E) (ligand, also called TL1W94 (M158E)) HHHHHHENLYFQGLKGQEFAPSHQQVYAPLRADGDKPRAHLTVVRQTPTQHFKNQFPALHWEHELGLAFTKNRMNYTNKFLLIPESGDYFIYSQVTFRGETSECSEIRQAGRPNKPDSITVVITKVTDSYPEPTQLLMGTKSVCEVGSNWFQPIYLGAMFSLQEGDKLMVNVSDISLVDYTKEDKTFFGAFLL
A: 2.2 ratio (head: nM)

Q: Give Rel EC50 for the following binder: TL1W119 (His-TEV-TL1A S206F) (ligand, also called TL1W119 (S206F)) HHHHHHENLYFQGLKGQEFAPSHQQVYAPLRADGDKPRAHLTVVRQTPTQHFKNQFPALHWEHELGLAFTKNRMNYTNKFLLIPESGDYFIYSQVTFRGMTSECSEIRQAGRPNKPDSITVVITKVTDSYPEPTQLLMGTKSVCEVGFNWFQPIYLGAMFSLQEGDKLMVNVSDISLVDYTKEDKTFFGAFLL
A: 3.3 ratio (head: nM)

Q: Give Rel EC50 for the following binder: TL1W122 (His-TEV-TL1A N207F) (ligand, also called TL1W122 (N207F)) HHHHHHENLYFQGLKGQEFAPSHQQVYAPLRADGDKPRAHLTVVRQTPTQHFKNQFPALHWEHELGLAFTKNRMNYTNKFLLIPESGDYFIYSQVTFRGMTSECSEIRQAGRPNKPDSITVVITKVTDSYPEPTQLLMGTKSVCEVGSFWFQPIYLGAMFSLQEGDKLMVNVSDISLVDYTKEDKTFFGAFLL
A: 1.2 ratio (head: nM)

New cases:
Q: Give Rel EC50 for the following binder: TL1W110 (His-TEV-TL1A S187K) (ligand, also called TL1W110 (S187K)) HHHHHHENLYFQGLKGQEFAPSHQQVYAPLRADGDKPRAHLTVVRQTPTQHFKNQFPALHWEHELGLAFTKNRMNYTNKFLLIPESGDYFIYSQVTFRGMTSECSEIRQAGRPNKPDSITVVITKVTDKYPEPTQLLMGTKSVCEVGSNWFQPIYLGAMFSLQEGDKLMVNVSDISLVDYTKEDKTFFGAFLL
A: 1.3 ratio (head: nM)
